Molecular target: T1, IL-11 (Cat. 12225-HNCE, Sino Biological Inc.) (UniProt P20809 22-199, limits assumed)
T1 sequence (looked up): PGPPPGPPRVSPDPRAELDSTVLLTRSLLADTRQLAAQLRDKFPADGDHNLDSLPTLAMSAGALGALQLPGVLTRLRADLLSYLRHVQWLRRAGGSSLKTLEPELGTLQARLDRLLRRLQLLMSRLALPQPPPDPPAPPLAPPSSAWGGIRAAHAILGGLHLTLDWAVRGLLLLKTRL
Assay: cell-based or functional assay
assay-endpoint: Blocking activity (IC50), STAT3-luc reporter (µg/mL)
# number only, unit µg/mL dropped from output

Below are worked cases with known answers.
hz18A10-VHm1 + hz18A10-VL (antibody, V domains shown, Constant regions not restated for this antibody) VH: EVQLVQSGAEVKKPGASVKVSCKASGYTFTTYNMDWVRQAPGQGLEWMGTIYPGNGDTSYNQKFKGRVTMTRDTSTSTVYMELSSLRSEDTAVYYCARGDLHFLDYWGQGTLVTVSS VL: DIQMTQSPSSLSASVGDRVTITCKASQSVSNDVAWYQQKPGKAPKLLIYSASNRYTGVPSRFSGSGSGTDFTFTISSLQPEDIATYYCQHDYSSPYTFGQGTKLEIK = 10.9
hz18A10-VH + hz18A10-VLm16 (antibody, V domains shown, Constant regions not restated for this antibody) VH: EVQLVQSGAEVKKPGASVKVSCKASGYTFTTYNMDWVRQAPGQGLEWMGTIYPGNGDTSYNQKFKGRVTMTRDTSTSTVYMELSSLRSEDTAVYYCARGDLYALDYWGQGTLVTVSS VL: DIQMTQSPSSLSASVGDRVTITCKASQSVSNDVAWYQQKPGKAPKLLIYRASRRYPGVPSRFSGSGSGTDFTFTISSLQPEDIATYYCQHDYSSPYTFGQGTKLEIK = 9.89
hz8C8-VHm1-m13 + hz8C8-VLm7-m2 (antibody, human IgG1, kappa, V domains shown, human IgG1 constant regions) VH: EVQLVESGGGLVQPGGSLRLSCAASGFTFSSFGMHWVRQAPGKGLEWVAYITPGSNTIYYADTVKGRFTISRDNAKNSLYLQMNSLRAEDTAVYYCAREYYSYDEGFASWGQGTLVTVSS VL: EIVLTQSPATLSLSPGERATLSCSVSDLIPSQYLHWYQQKPGQAPRLLIYDASNLASGIPARFSGSGSGTDFTLTISSLEPEDFAVYYCQQGVDVPFTFGQGTKLEIKR = 0.008
hz8C8-VHm1-m3 + hz8C8-VLm7 (antibody, human IgG1, kappa, V domains shown, human IgG1 constant regions) VH: EVQLVESGGGLVQPGGSLRLSCAASGFTFSSFGMHWVRQAPGKGLEWVAYITPGSNTIYYADTVKGRFTISRDNAKNSLYLQMNSLRAEDTAVYYCAREYSSYDEGFAYWGQGTLVTVSS VL: EIVLTQSPATLSLSPGERATLSCSVSDLIPSQYLHWYQQKPGQAPRLLIYRTSNLASGIPARFSGSGSGTDFTLTISSLEPEDFAVYYCQQGVDVPFTFGQGTKLEIKR = 0.053

Quick check: Blocking activity (IC50), STAT3-luc reporter of hz18A10-VH + hz18A10-VLm9 (antibody, V domains shown, Constant regions not restated for this antibody) VH: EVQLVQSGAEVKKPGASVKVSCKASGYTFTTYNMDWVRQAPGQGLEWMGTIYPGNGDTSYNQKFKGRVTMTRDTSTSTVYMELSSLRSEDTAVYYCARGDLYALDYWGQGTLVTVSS VL: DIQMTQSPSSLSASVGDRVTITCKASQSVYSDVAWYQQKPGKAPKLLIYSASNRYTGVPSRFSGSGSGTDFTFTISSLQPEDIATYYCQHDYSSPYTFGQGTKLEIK ?
1.25

From: patent US20250197488A1
